Assayed target: RdRp of the influenza virus (replicon activity) (Influenza A virus, UniProt P03431)
Sequence (P03431 whole entry, looked up): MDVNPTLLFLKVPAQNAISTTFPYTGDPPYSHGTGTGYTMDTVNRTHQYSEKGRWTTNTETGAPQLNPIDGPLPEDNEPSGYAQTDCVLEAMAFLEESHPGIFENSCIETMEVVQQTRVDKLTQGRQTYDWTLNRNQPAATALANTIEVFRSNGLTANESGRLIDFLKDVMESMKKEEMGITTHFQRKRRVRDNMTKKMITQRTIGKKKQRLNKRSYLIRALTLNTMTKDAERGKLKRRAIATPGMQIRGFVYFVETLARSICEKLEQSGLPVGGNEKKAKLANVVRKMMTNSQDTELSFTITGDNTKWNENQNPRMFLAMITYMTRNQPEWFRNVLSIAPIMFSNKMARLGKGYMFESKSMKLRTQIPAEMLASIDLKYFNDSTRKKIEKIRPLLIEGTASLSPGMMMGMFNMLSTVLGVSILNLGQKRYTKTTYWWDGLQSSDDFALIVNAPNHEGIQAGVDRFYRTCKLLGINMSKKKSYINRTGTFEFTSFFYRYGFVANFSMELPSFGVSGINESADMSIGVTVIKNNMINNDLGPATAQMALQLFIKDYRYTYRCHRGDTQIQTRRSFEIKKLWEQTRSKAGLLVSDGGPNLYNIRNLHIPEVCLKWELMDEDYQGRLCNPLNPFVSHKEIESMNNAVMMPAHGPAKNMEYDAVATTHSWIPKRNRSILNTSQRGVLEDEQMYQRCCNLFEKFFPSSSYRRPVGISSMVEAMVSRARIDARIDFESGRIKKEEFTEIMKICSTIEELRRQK
Procedure details: Influenza virus RdRp replicon reporter (Luc) assay in transduced 293T cells
Type: cell-based, Influenza A/PR/8/34 (H1N1)
Condition summary: Methotrexate concentration 1.25 μM; read-out: T-705 50% inhibitory concentration
Measurement kind: IC50 (µM)
The figure you give is taken to be in µM; do not add the unit.

Reported IC50, compound NC(=O)c1nc(F)cnc1O [T-705, 6-Fluoro-3-hydroxy-2-pyrazinecarboxamide] : ____
40

###

Assayed target: RdRp of the influenza virus (replicon activity) (Influenza A virus, UniProt P03431)
Procedure details: Influenza virus RdRp replicon reporter (Luc) assay in transduced 293T cells
Assay type: cell-based, Influenza A/PR/8/34 (H1N1)
Condition summary: 6-Mercaptopurine concentration 67 μM; read-out: T-705 50% inhibitory concentration
Measurement kind: IC50 (µM)
The figure you give is taken to be in µM; do not add the unit.

Reported IC50, compound NC(=O)c1nc(F)cnc1O [T-705, 6-Fluoro-3-hydroxy-2-pyrazinecarboxamide] : ____
5.1

###

Assayed target: UniProtKB P03431
Procedure details: Influenza virus RdRp replicon reporter (Luc) assay in transduced 293T cells
Assay type: cell-based, Influenza A/PR/8/34 (H1N1)
Condition summary: 6-Mercaptopurine concentration 2.5 μM; read-out: T-705 50% inhibitory concentration
Measurement kind: IC50 (µM)
The figure you give is taken to be in µM; do not add the unit.

Reported IC50, molecule NC(=O)c1nc(F)cnc1O [T-705, 6-Fluoro-3-hydroxy-2-pyrazinecarboxamide] : ____
67

###

Assayed target: RdRp of the influenza virus (replicon activity) (Influenza A virus, UniProt P03431)
Procedure details: Influenza virus RdRp replicon reporter (Luc) assay in transduced 293T cells
Format: cell-based, Influenza A/PR/8/34 (H1N1)
Condition summary: 6-Mercaptopurine concentration 22 μM; read-out: T-705 50% inhibitory concentration
Measurement kind: pIC50
Quick note: pIC50 means taking -log10 of the concentration in moles per liter.

# get_value(readout= pIC50, system= RdRp of the influenza virus (replicon activity) (Influenza A virus, UniProt P03431)) for NC(=O)c1nc(F)cnc1O [T-705, 6-Fluoro-3-hydroxy-2-pyrazinecarboxamide]
5.64

###

Assayed target: RdRp of the influenza virus (replicon activity) (Influenza A virus)
Procedure details: Influenza virus RdRp replicon reporter (Luc) assay in transduced 293T cells
Format: cell-based, Influenza A/PR/8/34 (H1N1)
Condition summary: T-705 0 μM; antimetabolite 0.4 μM
Measurement kind: Replicon inhibiting percentage (%)
The figure you give is taken to be in %; do not add the unit.

Reported Replicon inhibiting percentage, compound CN(Cc1cnc2nc(N)nc(N)c2n1)c1ccc(C(=O)N[C@@H](CCC(=O)O)C(=O)O)cc1 [Methotrexate, methotrexate] : ____
18

Reported Replicon inhibiting percentage, compound C#CCC(Cc1cnc2nc(N)nc(N)c2n1)c1ccc(C(=O)N[C@@H](CCC(=O)O)C(=O)O)cc1 (some centres unmarked) [Pralatrexate, pralatrexate] : ____
23

Reported Replicon inhibiting percentage, compound Sc1ncnc2nc[nH]c12 : ____
1.5

Reported Replicon inhibiting percentage, compound Nc1nc2nc[nH]c2c(=S)[nH]1 : ____
−5.4

Reported Replicon inhibiting percentage, compound Cn1cnc([N+](=O)[O-])c1Sc1ncnc2nc[nH]c12 : ____
−6.1
